B1: 3'-5' exoribonuclease 1, residues 65 to 114; numbered along this chain, Q8IV48 (parent)
chain: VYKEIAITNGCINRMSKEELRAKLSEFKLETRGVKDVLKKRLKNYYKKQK

variants of: B1; test: abundance fitness (aPCA) (normalised: wild type 0, dead -1); higher = more abundant; growth selection in yeast, the domain comes from the species named; settings: Homo sapiens
Please note: fulfilled applies when abundance fitness is -0.2 or greater, and not fulfilled applies otherwise.

Prompt: Determine whether this variant has abundance fitness no lower than -0.2: "V37I"
Completion: not fulfilled

Prompt: Determine whether this variant has abundance fitness no lower than -0.2: "G33F"
Completion: not fulfilled

Prompt: Determine whether this variant has abundance fitness no lower than -0.2: "I7P"
Completion: fulfilled

Prompt: Determine whether this variant has abundance fitness no lower than -0.2: "R14G"
Completion: fulfilled

Prompt: Determine whether this variant has abundance fitness no lower than -0.2: "I5Y"
Completion: fulfilled

Prompt: Determine whether this variant has abundance fitness no lower than -0.2: "V34S"
Completion: fulfilled

Prompt: Determine whether this variant has abundance fitness no lower than -0.2: "I12W"
Completion: not fulfilled

Values were extracted from the Human Domainome abundance scans (Beltran et al. 2025).
